Molecular target: catalytic domain of Pin1 (Homo sapiens, UniProt Q13526)
Construct: The purified catalytic domain of Pin1 was incubated with the fragment library
Sequence (Q13526 52-163 limits assumed): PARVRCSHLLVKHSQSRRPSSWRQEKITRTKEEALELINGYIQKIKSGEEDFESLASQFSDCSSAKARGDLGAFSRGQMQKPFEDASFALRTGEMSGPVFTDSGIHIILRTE
Experiment: Intact protein LC/MS labeling of Pin1
Assay type: binding
Conditions: 2 μM Pin1 with 200 μM test compound for 24 hours at 4° C.
Would you kindly list Labeling [%] for each of these molecules?
Answers are plain numbers, in %.

# annotated cases, reported Labeling [%] shown
>  <molecule>
Cc1ccc(N(C(=O)CCl)C2C=CS(=O)(=O)C2)cc1 (stereo not shown)

>  <measurement-target>
catalytic domain of Pin1 (Homo sapiens, UniProt Q13526)

>  <Labeling [%] / %>
100

$$$$
>  <molecule>
O=C(CCl)N(C1CC1)C1CCS(=O)(=O)C1 (stereo not shown)

>  <measurement-target>
catalytic domain of Pin1 (Homo sapiens, UniProt Q13526)

>  <Labeling [%] / %>
72

$$$$

Give Labeling [%] for all molecules that follow.
1. O=C(CCl)N(C1CCCCC1)C1CCS(=O)(=O)C1 (stereo not shown)
2. O=C(CCl)NC1CCS(=O)(=O)C1 (stereo not shown)
3. Cc1ccc(N(C(=O)CCl)C2C=CS(=O)(=O)C2)cc1C (stereo not shown)
4. CCN(C(=O)CCl)C1CCS(=O)(=O)C1 (stereo not shown)

Reply |
1: 100; 2: 56; 3: 69; 4: 85

For each of the molecules below, note its Labeling [%].
1. O=C(CCl)N(C1CCCC1)C1CCS(=O)(=O)C1 (stereo not shown)
2. O=C(CCl)N(c1ccccc1)C1C=CS(=O)(=O)C1 (stereo not shown)
3. O=C(CCl)N(c1ccccc1)C1CCS(=O)(=O)C1 (stereo not shown)
4. Cc1cccc(N(C(=O)CCl)C2C=CS(=O)(=O)C2)c1 (stereo not shown)

Reply |
[83, 100, 83, 100]

----------
Test: Pharmacokinetics, intravenous administration
Format: in vivo, Male C57Bl/6J mice
Settings: male, C57Bl/6J, mouse, in vivo, iv, 2 mg/kg, Avg. of 3 mice, read-out: VSS obs.
measurement-type: Vd (L/kg)
Give bare numbers, in L/kg.

Ask | Entry under review: CC(C)(C)CN(C(=O)CCl)C1CCS(=O)(=O)C1 (stereo not shown) [Pin1-3] . Reported Vd?
Reply | 0.61

----------
Assay: Pharmacokinetics, intravenous administration
Format: in vivo, Male C57Bl/6J mice
Conditions: male, C57Bl/6J, mouse, in vivo, iv, 2 mg/kg, individual mice No. 1-3
measurement-type: half-life
Give the number first and the unit second.

Ask | Entry CC(C)(C)CN(C(=O)CCl)C1CCS(=O)(=O)C1 (stereo not shown) [Pin1-3] has what half-life?
Reply | 53.4 min

----------
Test: Pharmacokinetics, intravenous administration
Type: in vivo, Male C57Bl/6J mice
Conditions: male, C57Bl/6J, mouse, in vivo, iv, 2 mg/kg, individual mice No. 1-3, read-out: MRTINF obs.
measurement-type: MRT inf (h)
One number for each entry, in h.

Ask | # get_value(readout='MRT inf', item= CC(C)(C)CN(C(=O)CCl)C1CCS(=O)(=O)C1 (stereo not shown) [Pin1-3] )
Reply | 1.7

----------
Task for the reader: assign each of the following molecules its reported Labeling [%].
Molecular target: catalytic domain of Pin1 (Homo sapiens, UniProt Q13526)
Construct: The purified catalytic domain of Pin1 was incubated with the fragment library
Assay: Intact protein LC/MS labeling of Pin1
Type: binding
Settings: 2 μM Pin1 with 2 μM test compound for 1 hour at room temperature
Numbers only, in %.

>  <molecule>
O=C(CCl)N(Cc1ccccc1-c1ccccc1)C1CCS(=O)(=O)C1 (stereo not shown)

>  <measured-number>
25

$$$$

For each entry beneath this line, provide reported Labeling [%].
1. O=C(CCl)N(Cc1ccco1)C1CCS(=O)(=O)C1 (stereo not shown)
2. CN(C)CCN(C(=O)CCl)C1CCS(=O)(=O)C1 (stereo not shown)
3. O=C(CCl)N(Cc1cccc(Cl)c1)C1CCS(=O)(=O)C1 (stereo not shown)
4. COCCN(C(=O)CCl)C1CCS(=O)(=O)C1 (stereo not shown)
5. CCCN(C(=O)CCl)C1CCS(=O)(=O)C1 (stereo not shown)
6. CC1(NC(=O)CCl)CCS(=O)(=O)C1 (stereo not shown)
7. O=C(CCl)NC1CCS(=O)(=O)C1 (stereo not shown)

Reply |
[25, 0, 19, 12, 16, 0, 0]

Hey, quick one: what's Labeling [%] for each of these?
1. CCN(C(=O)CCl)C1CCS(=O)(=O)C1 (stereo not shown)
2. CC(C)CN(C(=O)CCl)C1CCS(=O)(=O)C1 (stereo not shown)
3. O=C(CCl)N(Cc1cccs1)C1CCS(=O)(=O)C1 (stereo not shown)
4. CCC(C)N(C(=O)CCl)C1CCS(=O)(=O)C1 (stereo not shown)
5. O=C(CCl)N(Cc1ccccc1-c1cccc(C(F)(F)F)c1)C1CCS(=O)(=O)C1 (stereo not shown)
6. Cc1cccc(CN(C(=O)CCl)C2CCS(=O)(=O)C2)c1 (stereo not shown)
7. CC1(N(Cc2ccccc2)C(=O)CCl)CCS(=O)(=O)C1 (stereo not shown)

Reply |
0
21
45
28
23
30
43

Hey, quick one: what's Labeling [%] for each of these?
1. Cc1ccsc1CN(C(=O)CCl)C1CCS(=O)(=O)C1 (stereo not shown)
2. O=C(CCl)N(Cc1cccc(F)c1)C1CCS(=O)(=O)C1 (stereo not shown)
3. O=C(CCl)N(CC1CCCO1)C1CCS(=O)(=O)C1 (stereo not shown)
4. CC(c1ccccc1)N(C(=O)CCl)C1CCS(=O)(=O)C1 (stereo not shown)
5. CC(C)(C)CN(C(=O)CCl)C1CCS(=O)(=O)C1 (stereo not shown)
6. O=C(CCl)N(Cc1ccccc1OCc1ccccc1)C1CCS(=O)(=O)C1 (stereo not shown)
7. O=C(CCl)N(C1CCS(=O)(=O)C1)C(Cc1ccccc1)c1ccccc1 (stereo not shown)

Reply |
52
24
16
27
48
37
50
